system: CEM cells HIV-1 protection, formazan growth assay; assay: NCI AIDS Antiviral Assay; conditions: measured here: growth of uninfected CEM cells
readout.type: log10 IC50 (log10 of the value in µM)
Annotation: log10 of IC50, µM basis.

Reference set (5 entries):
* COC1/C=C/OC2(C)Oc3c(C)c(O)c4c(O)c(c(CNCc5ccccc5)c(O)c4c3C2=O)NC(=O)/C(C)=C\C=C\C(C)C(O)C(C)C(O)C(C)C(OC(C)=O)C1C (stereo not given) | 0.18
* Cc1cc(OP2(=O)Nc3ccccc3-c3ccccc3N2)ccc1Cl | 0.10
* CC(Oc1ccc(Oc2cnc3ccc(Cl)cc3n2)cc1)C(=O)O (stereo not given) | 1.24
* CCOC(=O)/C(=C\c1c(C)[nH]c2ccccc12)P(=O)(OCC)OCC | 2.04
* COc1cc2c(c(OC)c1OC)-c1ccc(OC)c(=O)cc1C(NC(=O)CCCCCNc1ccc(N=[N+]=[N-])cc1[N+](=O)[O-])CC2 (stereo not given) | -1.20

Q: # lookup: log10 IC50 of CCN1C(=O)C(N2CCCCC2)S/C1=C\C(=O)O (stereo not given)
Ans: 2.66

Q: # lookup: log10 IC50 of CCc1cc2c(oc3cc(C)ccc32)c(=O)n1C
Ans: 1.99

Q: # lookup: log10 IC50 of Cc1ccc(-c2csc(=Nc3c(C)n(C)n(-c4ccccc4)c3=O)n2CCO)cc1
Ans: 1.90

Q: # lookup: log10 IC50 of COC(=O)c1cc2c3c(c1)Oc1cc(C(=O)OC)cc4c1C3c1c(cc(C(=O)OC)cc1O4)O2
Ans: 1.74

Q: # lookup: log10 IC50 of CCOC(=O)C1=CNC(C(=O)OCC)C1c1cccn1-c1ccc(Cl)cc1[N+](=O)[O-] (stereo not given)
Ans: 1.42

---

test system: CEM cells HIV-1 protection, formazan growth assay; assay: NCI AIDS Antiviral Assay;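 active = compounds giving half or more protection of infected cells from virus-caused growth loss, again on retest; inactive = the rest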
Form entry, call: pick from active, inactive

Q: // outcome(item) with item = COCCCCCCCCCCCC(=O)OCC1OC(n2cc(C)c(=O)[nH]c2=O)CC1F (stereo unspecified)
Ans: active

Q: // outcome(item) with item = O=C1NC(Cc2ccc(Cl)cc2)C(=O)N2CCCC12 (stereo unspecified)
Ans: inactive

Q: // outcome(item) with item = CC1=CC(=O)/C(=C/N2C(=O)/C(=C\c3cccc(O)c3)SC2=S)C(=O)O1
Ans: inactive

Q: // outcome(item) with item = O=S(=O)(c1ccc(O)cc1)c1ccc(I)cc1
Ans: inactive

Q: // outcome(item) with item = N=C(N)/N=C(/C=C/c1ccccc1)CC1OC(=O)c2ccccc21 (stereo unspecified)
Ans: inactive

Q: // outcome(item) with item = O=C1NC2(CCN(Cc3ccccc3)CC2)Oc2ccccc21
Ans: inactive

Q: // outcome(item) with item = CCCCCCCCCCCCNC1(C)CNCCCNCCNCCCNC1
Ans: inactive

---

System: CEM cells HIV-1 protection, formazan growth assay
Experiment: NCI AIDS Antiviral Assay
Description: The ability of compounds to protect human CEM cells from HIV-1 infection is measured as a screen for new compounds capable of inhibiting the HIV virus. Five concentrations of drug were tested on uninfected and infected cells and cell growth was measured using a soluble formazan assay. […] Compounds that provided at least 50% protection were retested. Compounds that provided at least 50% protection on retest were listed as moderately active. […]
pEC50: −log10 of the molar value.
readout.type: pEC50

* N#Cc1ccc(C2NN=CC23C(=O)c2ccccc2OC3c2ccccc2)cc1 (stereo unspecified) | < 3.70
* CN1CCc2ccccc2C(C(=O)c2ccc3c(c2)OCO3)C1=O (stereo unspecified) | < 3.81
* Cc1ccc(C2(c3ccc(C)cc3)SC(=C(C#N)C#N)c3ccccc32)cc1 | < 3.70

Q: # lookup: pEC50 of CCOC(=O)NC(Nc1ccc([N+](=O)[O-])cc1)(C(F)(F)F)C(F)(F)F
Ans: < 3.70

Q: # lookup: pEC50 of CCN(CC)CC(=O)Nc1ccc(C)c(Cl)c1
Ans: < 3.70

Q: # lookup: pEC50 of O=S1CSCS1 (stereo unspecified)
Ans: < 3.70

Q: # lookup: pEC50 of COC(=O)C1=C(C(=O)[C@H](Cc2ccccc2)NC(=O)c2ccccc2)CCC1
Ans: < 4.02
